# ASSAYED_SYSTEM: human EGFR exon 20 insertion ASV (V769_D770insASV) (Homo sapiens, UniProt P00533, INS769ASV)
# Sequence (P00533 with tags, fused parts or gaps INS769ASV): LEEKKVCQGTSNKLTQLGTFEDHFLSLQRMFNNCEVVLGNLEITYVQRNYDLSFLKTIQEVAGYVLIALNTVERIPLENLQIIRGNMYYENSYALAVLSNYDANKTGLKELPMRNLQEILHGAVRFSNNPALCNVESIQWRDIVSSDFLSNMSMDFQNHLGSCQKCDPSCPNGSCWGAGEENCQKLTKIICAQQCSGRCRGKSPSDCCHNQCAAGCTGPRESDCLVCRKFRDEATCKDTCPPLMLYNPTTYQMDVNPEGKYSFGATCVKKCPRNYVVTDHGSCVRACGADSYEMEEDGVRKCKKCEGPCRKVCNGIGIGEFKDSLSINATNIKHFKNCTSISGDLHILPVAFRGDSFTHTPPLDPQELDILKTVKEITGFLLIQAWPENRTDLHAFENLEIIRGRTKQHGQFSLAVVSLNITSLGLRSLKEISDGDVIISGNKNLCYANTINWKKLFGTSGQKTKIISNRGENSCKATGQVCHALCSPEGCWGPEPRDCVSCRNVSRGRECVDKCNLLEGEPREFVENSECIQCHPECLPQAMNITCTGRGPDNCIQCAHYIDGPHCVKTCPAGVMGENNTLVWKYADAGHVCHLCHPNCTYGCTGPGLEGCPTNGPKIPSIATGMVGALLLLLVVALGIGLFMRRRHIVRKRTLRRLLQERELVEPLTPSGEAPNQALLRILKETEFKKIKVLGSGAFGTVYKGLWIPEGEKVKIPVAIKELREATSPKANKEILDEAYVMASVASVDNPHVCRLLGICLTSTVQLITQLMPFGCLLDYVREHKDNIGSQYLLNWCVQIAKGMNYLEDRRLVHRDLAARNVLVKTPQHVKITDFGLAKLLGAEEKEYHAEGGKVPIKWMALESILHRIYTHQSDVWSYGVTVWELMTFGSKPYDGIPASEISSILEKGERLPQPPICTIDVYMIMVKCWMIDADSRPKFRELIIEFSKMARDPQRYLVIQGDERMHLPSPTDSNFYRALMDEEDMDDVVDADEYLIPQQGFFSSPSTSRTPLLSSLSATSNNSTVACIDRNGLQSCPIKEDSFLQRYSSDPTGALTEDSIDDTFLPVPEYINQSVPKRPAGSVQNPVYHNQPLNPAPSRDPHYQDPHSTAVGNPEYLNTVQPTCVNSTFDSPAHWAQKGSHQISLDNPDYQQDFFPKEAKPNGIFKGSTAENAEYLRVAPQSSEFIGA
# METHOD_DESCRIPTION: Ba/F3-EGFR-Exon20-ASV cell anti-proliferative assay (CellTiter 96 MTS, 72 h)
# CONDITION: Ba/F3-EGFR-Exon20-ASV cells
# Procedure: An expression vector, pLVX-IRES puro (Clontech) coding for human EGFR exon 20 insertions NPG (H773_V774insNPG) or ASV (V769_D770insASV), was transfected into HEK293 cells by the Trans-Lentiviral ORF Packaging System (Thermo Scientific), to produce virus encoding EGFR exon 20 insertions. […] The absorbance in each well was then measured at 490 nm using an Envision plate reader (Perkin Elmer).
Collected IC50 values appear next to each entry.

>  <INPUT_SMILES>
C=CC(=O)Nc1cc(Nc2ncc(C(N)=O)c(-c3cn4c5c(cccc35)CCC4)n2)c(OC)cc1N(C)CCN(C)C

>  <IC50>
< 100 nM

$$$$
>  <INPUT_SMILES>
C=CC(=O)Nc1cc(Nc2nccc(-c3cn4c5c(cccc35)OCC4)n2)c(OC)cc1N(C)CCNC

>  <IC50>
100 to 500 nM

$$$$
>  <INPUT_SMILES>
C=CC(=O)Nc1cc(Nc2ncc(Cl)c(-c3cn4c5c(cccc35)CCC4)n2)c(CC)cc1N(C)CCN(C)C

>  <IC50>
< 100 nM

$$$$
>  <INPUT_SMILES>
C=CC(=O)Nc1cc(Nc2ncc(C(=O)OC(C)C)c(-c3cn4c5c(cccc35)CCC4)n2)c(OC)cc1N(C)CCN(C)C

>  <IC50>
< 100 nM

$$$$
>  <INPUT_SMILES>
C=CC(=O)Nc1cc(Nc2ncc(C(=O)NCCOC)c(-c3cn4c5c(cccc35)CCC4)n2)c(OC)cc1N(C)CCN(C)C

>  <IC50>
100 to 500 nM

$$$$
>  <INPUT_SMILES>
C=CC(=O)Nc1cc(Nc2ncc(C#N)c(-c3cn4c5c(cccc35)OCC4)n2)c(OC)cc1N(C)CCN(C)C

>  <IC50>
< 100 nM

$$$$
>  <INPUT_SMILES>
C=CC(=O)Nc1cc(Nc2ncc(OCC#N)c(-c3cn4c5c(cccc35)CCC4)n2)c(OC)cc1N(C)CCN(C)C

>  <IC50>
< 100 nM

$$$$

* * *

# ASSAYED_SYSTEM: human EGFR exon 20 insertion NPG (H773_V774insNPG) (Homo sapiens, UniProt P00533, INS772GNP)
# Sequence (P00533 with tags, fused parts or gaps INS772GNP): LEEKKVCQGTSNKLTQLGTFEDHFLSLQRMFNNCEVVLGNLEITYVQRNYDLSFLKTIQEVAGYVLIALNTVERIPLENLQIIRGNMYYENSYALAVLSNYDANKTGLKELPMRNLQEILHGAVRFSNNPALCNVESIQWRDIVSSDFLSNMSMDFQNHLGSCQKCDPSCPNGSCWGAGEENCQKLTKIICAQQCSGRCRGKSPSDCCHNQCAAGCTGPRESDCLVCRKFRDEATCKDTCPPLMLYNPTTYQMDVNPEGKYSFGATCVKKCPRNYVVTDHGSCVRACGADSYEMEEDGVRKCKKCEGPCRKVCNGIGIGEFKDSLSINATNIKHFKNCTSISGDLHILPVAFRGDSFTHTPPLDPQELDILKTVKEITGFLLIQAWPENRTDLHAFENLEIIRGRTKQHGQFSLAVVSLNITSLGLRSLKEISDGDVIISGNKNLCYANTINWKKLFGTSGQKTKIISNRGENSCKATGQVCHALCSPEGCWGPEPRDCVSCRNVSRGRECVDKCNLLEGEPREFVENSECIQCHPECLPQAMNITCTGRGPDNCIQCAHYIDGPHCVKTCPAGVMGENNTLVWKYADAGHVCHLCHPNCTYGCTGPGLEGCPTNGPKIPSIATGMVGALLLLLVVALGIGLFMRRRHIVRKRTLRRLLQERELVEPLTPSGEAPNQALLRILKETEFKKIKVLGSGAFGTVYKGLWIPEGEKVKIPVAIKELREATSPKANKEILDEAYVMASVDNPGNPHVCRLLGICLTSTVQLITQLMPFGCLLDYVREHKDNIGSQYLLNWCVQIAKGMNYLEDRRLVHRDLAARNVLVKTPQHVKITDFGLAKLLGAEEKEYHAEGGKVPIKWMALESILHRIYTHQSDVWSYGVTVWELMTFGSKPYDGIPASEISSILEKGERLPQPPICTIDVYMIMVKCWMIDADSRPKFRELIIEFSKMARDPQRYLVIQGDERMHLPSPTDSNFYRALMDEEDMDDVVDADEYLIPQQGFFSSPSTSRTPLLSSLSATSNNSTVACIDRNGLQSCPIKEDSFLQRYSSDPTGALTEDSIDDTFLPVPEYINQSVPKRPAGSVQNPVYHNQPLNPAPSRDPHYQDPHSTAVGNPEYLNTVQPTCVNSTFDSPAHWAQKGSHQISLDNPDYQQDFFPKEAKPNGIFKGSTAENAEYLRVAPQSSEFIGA
# METHOD_DESCRIPTION: Ba/F3-EGFR-Exon20-NPG cell anti-proliferative assay (CellTiter 96 MTS, 72 h)
# CONDITION: Ba/F3-EGFR-Exon20-NPG cells
pIC50: −log10 of the molar value.
# Lookup of reported pIC50 keyed by entry

>  <INPUT_SMILES>
C=CC(=O)Nc1cc(Nc2ncc(C#N)c(-c3cn4c5c(cccc35)CCC4)n2)c(OC)cc1N1CC[C@@H](N(C)C)C1

>  <pIC50>
> 7.00

$$$$
>  <INPUT_SMILES>
C=CC(=O)Nc1cc(Nc2ncc(N3CCCC3)c(-c3cn4c5c(cccc35)CCC4)n2)c(OC)cc1N(C)CCN(C)C

>  <pIC50>
6.30 to 7.00

$$$$
>  <INPUT_SMILES>
C=CC(=O)Nc1cc(Nc2ncc(C(=O)O)c(-c3cn4c5c(cccc35)CCC4)n2)c(OC)cc1N(C)CCN(C)C

>  <pIC50>
< 6.00

$$$$
>  <INPUT_SMILES>
C=CC(=O)Nc1cc(Nc2ncc(OC(F)F)c(-c3cn4c5c(cccc35)CCC4)n2)c(OC)cc1N(C)CCN(C)C

>  <pIC50>
> 7.00

$$$$
>  <INPUT_SMILES>
C=CC(=O)Nc1cc(Nc2ncc(CO)c(-c3cn4c5c(cccc35)CCC4)n2)c(OC)cc1N(C)CCN(C)C

>  <pIC50>
> 7.00

$$$$
>  <INPUT_SMILES>
C=CC(=O)Nc1cc(Nc2ncc(CCCOC)c(-c3cn4c5c(cccc35)CCC4)n2)c(OC)cc1N(C)CCN(C)C

>  <pIC50>
> 7.00

$$$$
>  <INPUT_SMILES>
C=CC(=O)Nc1cc(Nc2ncc(C(=O)NCCO)c(-c3cn4c5c(cccc35)CCC4)n2)c(OC)cc1N(C)CCN(C)C

>  <pIC50>
> 7.00

$$$$
>  <INPUT_SMILES>
C=CC(=O)Nc1cc(Nc2ncc(F)c(-c3cn4c5c(cccc35)CCC4)n2)c(OC)cc1N(C)CCN(C)C

>  <pIC50>
> 7.00

$$$$
>  <INPUT_SMILES>
C=CC(=O)Nc1cc(Nc2nccc(-c3c(N4CCCC4)n4c5c(cccc35)CCC4)n2)c(OC)cc1N(C)CCN(C)C

>  <pIC50>
> 7.00

$$$$
>  <INPUT_SMILES>
C=CC(=O)Nc1cc(Nc2ncc(-c3cnn(CC)c3)c(-c3cn4c5c(cccc35)CCC4)n2)c(OC)cc1N(C)CCN(C)C

>  <pIC50>
> 7.00

$$$$
>  <INPUT_SMILES>
C=CC(=O)Nc1cc(Nc2nccc(-c3cn4c5c(cccc35)CCC4)n2)c(OC)cc1N(C)CCNC

>  <pIC50>
> 7.00

$$$$
>  <INPUT_SMILES>
C=CC(=O)Nc1cc(Nc2nccc(-c3cn4c5c(cccc35)CCC4)n2)c(OC)cc1N(C)CCN(C)C

>  <pIC50>
> 7.00

$$$$
>  <INPUT_SMILES>
C=CC(=O)Nc1cc(Nc2ncc(C(C)C)c(-c3cn4c5c(cccc35)CCC4)n2)c(OC)cc1N(C)CCN(C)C

>  <pIC50>
6.30 to 7.00

$$$$
>  <INPUT_SMILES>
C=CC(=O)Nc1cc(Nc2nccc(-c3cn4c5c(cccc35)OCC4)n2)c(OC)cc1N(C)CCNC

>  <pIC50>
6.30 to 7.00

$$$$

* * *

# ASSAYED_SYSTEM: Her2 exon 20 YVMA insertion (A775_G776ins YVMA) (Homo sapiens, UniProt P04626, INS775YVMA)
# Sequence (P04626 with tags, fused parts or gaps INS775YVMA): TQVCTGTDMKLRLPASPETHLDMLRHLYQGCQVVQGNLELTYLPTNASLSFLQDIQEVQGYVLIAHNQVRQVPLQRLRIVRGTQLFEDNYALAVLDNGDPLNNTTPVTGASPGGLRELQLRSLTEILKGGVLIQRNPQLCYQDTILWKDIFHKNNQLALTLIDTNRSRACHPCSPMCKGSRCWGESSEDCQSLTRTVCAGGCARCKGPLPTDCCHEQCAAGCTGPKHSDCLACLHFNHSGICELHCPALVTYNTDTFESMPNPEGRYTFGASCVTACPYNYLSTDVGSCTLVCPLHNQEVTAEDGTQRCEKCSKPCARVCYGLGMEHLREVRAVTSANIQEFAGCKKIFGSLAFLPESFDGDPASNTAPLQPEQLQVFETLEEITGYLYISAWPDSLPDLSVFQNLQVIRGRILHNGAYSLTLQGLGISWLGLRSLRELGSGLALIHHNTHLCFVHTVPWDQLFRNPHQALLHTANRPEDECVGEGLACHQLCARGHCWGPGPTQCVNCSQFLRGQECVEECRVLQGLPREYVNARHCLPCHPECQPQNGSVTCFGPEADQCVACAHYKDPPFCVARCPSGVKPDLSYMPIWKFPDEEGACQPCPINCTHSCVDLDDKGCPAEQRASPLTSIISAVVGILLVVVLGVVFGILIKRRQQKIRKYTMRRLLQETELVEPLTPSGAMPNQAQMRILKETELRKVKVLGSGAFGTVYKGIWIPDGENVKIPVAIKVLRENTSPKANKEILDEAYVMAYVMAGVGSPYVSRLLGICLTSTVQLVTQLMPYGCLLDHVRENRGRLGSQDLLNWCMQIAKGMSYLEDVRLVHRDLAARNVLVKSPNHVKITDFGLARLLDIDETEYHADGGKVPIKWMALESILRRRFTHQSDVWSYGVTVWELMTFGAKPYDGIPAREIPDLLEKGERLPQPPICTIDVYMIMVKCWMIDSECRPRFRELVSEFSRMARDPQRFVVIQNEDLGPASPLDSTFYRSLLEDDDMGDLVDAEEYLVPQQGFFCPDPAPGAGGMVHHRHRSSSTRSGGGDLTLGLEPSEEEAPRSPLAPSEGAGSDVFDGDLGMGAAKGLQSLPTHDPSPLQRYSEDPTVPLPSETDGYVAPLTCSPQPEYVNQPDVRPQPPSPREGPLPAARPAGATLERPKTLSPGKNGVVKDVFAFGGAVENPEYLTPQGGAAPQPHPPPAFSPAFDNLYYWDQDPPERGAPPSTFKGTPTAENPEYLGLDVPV
# METHOD_DESCRIPTION: Ba/F3-Her2 Exon20 YVMA cell anti-proliferative assay (CellTiter 96 MTS, 72 h)
# CONDITION: Ba/F3-Her2 Exon20 YVMA cells
pIC50: −log10 of the molar value.
Below is a list of entries, each paired with its recorded pIC50 value.
MEASURE_NAME: pIC50

>  <COMPOUND>
C=CC(=O)Nc1cc(Nc2nccc(-c3c(N4CCCC4)n4c5c(cccc35)CCC4)n2)c(OC)cc1N(C)CCN(C)C [Example 93]

>  <DATA_VALUE>
6.30 to 7.00

$$$$
>  <COMPOUND>
C=CC(=O)Nc1cc(Nc2ncc(Cl)c(-c3cn4c5c(cccc35)CCC4)n2)c(OC)cc1OCCN1CCOCC1 [Example 22]

>  <DATA_VALUE>
< 6.00

$$$$
>  <COMPOUND>
C=CC(=O)Nc1cc(Nc2ncc(C(=O)OC)c(-c3cn4c5c(cccc35)CCC4)n2)c(OC)cc1N(C)CCN(C)C [Example 44]

>  <DATA_VALUE>
> 7.00

$$$$
>  <COMPOUND>
C=CC(=O)Nc1cc(Nc2ncc(-c3cnn(C)c3C)c(-c3cn4c5c(cccc35)CCC4)n2)c(OC)cc1N(C)CCN(C)C [Example 102]

>  <DATA_VALUE>
> 7.00

$$$$
>  <COMPOUND>
C=CC(=O)Nc1cc(Nc2ncc(C(=O)OC)c(-c3cn4c5c(cccc35)CCC4)n2)c(OC)cc1N(C)CC1CCCN1C (stereo not shown) [Example 89]

>  <DATA_VALUE>
> 7.00

$$$$
>  <COMPOUND>
C=CC(=O)Nc1cc(Nc2ncc(OC(F)F)c(-c3cn4c5c(cccc35)CCC4)n2)c(OC)cc1N(C)CCN(C)C [Example 64]

>  <DATA_VALUE>
6.30 to 7.00

$$$$
>  <COMPOUND>
C=CC(=O)Nc1cc(Nc2ncc(-c3nccn3C)c(-c3cn4c5c(cccc35)CCC4)n2)c(OC)cc1N(C)CCN(C)C [Example 98]

>  <DATA_VALUE>
6.30 to 7.00

$$$$

* * *

# ASSAYED_SYSTEM: human EGFR exon 20 insertion NPG (H773_V774insNPG) (Homo sapiens, UniProt P00533, INS772GNP)
# METHOD_DESCRIPTION: Ba/F3-EGFR-Exon20-NPG cell anti-proliferative assay (CellTiter 96 MTS, 72 h)
# CONDITION: Ba/F3-EGFR-Exon20-NPG cells

>  <COMPOUND>
C=CC(=O)Nc1cc(Nc2ncc(C#N)c(-c3cn4c5c(cccc35)CCC4)n2)c(OC)cc1N(C)CCN(C)C(C)C

>  <IC50>
< 100 nM

$$$$
>  <COMPOUND>
C=CC(=O)Nc1cc(Nc2ncc(C(=O)CC)c(-c3cn4c5c(cccc35)CCC4)n2)c(OC)cc1N(C)CCN(C)C

>  <IC50>
< 100 nM

$$$$
>  <COMPOUND>
C=CC(=O)Nc1cc(Nc2ncc(C#N)c(-c3cn4c5c(cccc35)CCC4)n2)c(OC)cc1N(C)CCN(C)C

>  <IC50>
> 1000 nM

$$$$
>  <COMPOUND>
C=CC(=O)Nc1cc(Nc2ncc(C(O)CC)c(-c3cn4c5c(cccc35)CCC4)n2)c(OC)cc1N(C)CCN(C)C (centres unmarked)

>  <IC50>
< 100 nM

$$$$
>  <COMPOUND>
C=CC(=O)Nc1cc(Nc2nccc(-c3c(N4CC[C@H](O)C4)n4c5c(cccc35)CCC4)n2)c(OC)cc1N(C)CCN(C)C

>  <IC50>
< 100 nM

$$$$
>  <COMPOUND>
C=CC(=O)Nc1cc(Nc2ncc(OCCOC)c(-c3cn4c5c(cccc35)CCC4)n2)c(OC)cc1N(C)CCN(C)C

>  <IC50>
< 100 nM

$$$$
>  <COMPOUND>
C=CC(=O)Nc1cc(Nc2ncc(-c3cnn(C)c3)c(-c3cn4c5c(cccc35)CCC4)n2)c(OC)cc1N(C)CCN(C)C

>  <IC50>
< 100 nM

$$$$
>  <COMPOUND>
C=CC(=O)Nc1cc(Nc2ncc(Cl)c(-c3cn4c5c(cccc35)CCC4)n2)c(OC)cc1O[C@H](COCC)CN(C)C

>  <IC50>
100 to 500 nM

$$$$
>  <COMPOUND>
C=CC(=O)Nc1cc(Nc2ncc(Cl)c(-c3cn4c5c(cccc35)CCC4)n2)c(C)cc1N(C)CCN(C)C

>  <IC50>
< 100 nM

$$$$
>  <COMPOUND>
C=CC(=O)Nc1cc(Nc2ncc(C#N)c(-c3cn4c5c(cccc35)N(C)C(=O)C4)n2)c(OC)cc1N(C)CCN(C)C

>  <IC50>
< 100 nM

$$$$
>  <COMPOUND>
C=CC(=O)Nc1cc(Nc2ncc(C#N)c(-c3cn4c5c(cccc35)CCC4)n2)c(OC)cc1N(C)CCNC

>  <IC50>
> 1000 nM

$$$$
>  <COMPOUND>
C=CC(=O)Nc1cc(Nc2ncc(CCC(C)O)c(-c3cn4c5c(cccc35)CCC4)n2)c(OC)cc1N(C)CCN(C)C (centres unmarked)

>  <IC50>
< 100 nM

$$$$
>  <COMPOUND>
C=CC(=O)Nc1cc(Nc2nccc(-c3c(-c4ncnn4C)n4c5c(cccc35)CCC4)n2)c(OC)cc1N(C)CCN(C)C

>  <IC50>
< 100 nM

$$$$
>  <COMPOUND>
C=CC(=O)Nc1cc(Nc2ncc(C(CC)OC)c(-c3cn4c5c(cccc35)CCC4)n2)c(OC)cc1N(C)CCN(C)C (centres unmarked)

>  <IC50>
< 100 nM

$$$$
